# TESTED TARGET: human P2Y2 receptor (Homo sapiens, UniProt P41231)
# Sequence (P41231 whole entry): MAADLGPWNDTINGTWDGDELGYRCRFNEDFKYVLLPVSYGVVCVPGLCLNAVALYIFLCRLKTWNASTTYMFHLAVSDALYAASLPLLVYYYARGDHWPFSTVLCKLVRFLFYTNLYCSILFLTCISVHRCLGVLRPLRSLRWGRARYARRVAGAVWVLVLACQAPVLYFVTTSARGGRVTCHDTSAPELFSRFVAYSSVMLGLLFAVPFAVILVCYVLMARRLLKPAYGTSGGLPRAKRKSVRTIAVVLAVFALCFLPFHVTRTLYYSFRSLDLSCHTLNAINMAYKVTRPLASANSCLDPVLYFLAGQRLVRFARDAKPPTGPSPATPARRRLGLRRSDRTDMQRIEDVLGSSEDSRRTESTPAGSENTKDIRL
# PROCEDURE SUMMARY: Fluo-3 calcium mobilization, FLIPR, […]1 cells
# Format: cell-based
In this section, each of the compounds is paired with its reported EC50.
Record the value in nM, omitting the unit from your answer.

Sample answers from the record:
[
  {
    "SMILES ENTRY": "Nc1ccn([C@@H]2O[C@H](COP(=O)(O)OP(=O)(O)OP(=O)(O)OP(=O)(O)OC[C@H]3O[C@@H](n4ccc(=O)[nH]c4=O)[C@H](O)[C@@H]3O)[C@@H](O)[C@H]2O)c(=O)n1",
    "MEASUREMENT LABEL": "EC50",
    "UNIT ANNOTATION": "nM",
    "VALUE OBSERVED": 460
  },
  {
    "SMILES ENTRY": "Nc1ccn([C@@H]2O[C@H](COP(=O)(O)OP(=O)(O)OP(=O)(O)OC[C@H]3O[C@@H](n4ccc(=O)[nH]c4=O)[C@H](O)[C@@H]3O)[C@@H](O)[C@H]2O)c(=O)n1",
    "MEASUREMENT LABEL": "EC50",
    "UNIT ANNOTATION": "nM",
    "VALUE OBSERVED": 2000
  },
  {
    "SMILES ENTRY": "Nc1ncnc2c1ncn2[C@@H]1O[C@H](COP(=O)(O)OP(=O)(O)OP(=O)(O)OC[C@H]2O[C@@H](n3cnc4c(N)ncnc43)[C@H](O)[C@@H]2O)[C@@H](O)[C@H]1O",
    "MEASUREMENT LABEL": "EC50",
    "UNIT ANNOTATION": "nM",
    "VALUE OBSERVED": 28500
  }
]

Ask | Give the measured EC50 of Nc1nc2c(ncn2[C@@H]2O[C@H](COP(=O)(O)OP(=O)(O)OC[C@H]3O[C@@H](n4ccc(=O)[nH]c4=O)[C@H](O)[C@@H]3O)[C@@H](O)[C@H]2O)c(=O)[nH]1 .
Reply | 2100

Ask | Give the measured EC50 of Nc1nc2c(ncn2[C@@H]2O[C@H](COP(=O)(O)OP(=O)(O)OP(=O)(O)OC[C@H]3O[C@@H](n4cnc5c(N)ncnc54)[C@H](O)[C@@H]3O)[C@@H](O)[C@H]2O)c(=O)[nH]1 .
Reply | 230

Ask | Give the measured EC50 of O=c1[nH]c(=S)ccn1[C@@H]1O[C@H](COP(=O)(O)OP(=O)(O)OP(=O)(O)OP(=O)(O)OC[C@H]2O[C@@H](n3ccc(=S)[nH]c3=O)[C@H](O)[C@@H]2O)[C@@H](O)[C@H]1O .
Reply | 82

Ask | Give the measured EC50 of O=c1[nH]c(=S)ccn1[C@@H]1O[C@H](COP(=O)(O)OP(=O)(O)OC[C@H]2O[C@@H](n3ccc(=S)[nH]c3=O)[C@H](O)[C@@H]2O)[C@@H](O)[C@H]1O .
Reply | 29100

Ask | Give the measured EC50 of O=c1ccn([C@@H]2O[C@H](COP(=O)(O)OP(=O)(O)OP(=O)(O)OC[C@H]3O[C@@H](n4cnc5c(=O)[nH]cnc54)[C@H](O)[C@@H]3O)[C@@H](O)[C@H]2O)c(=O)[nH]1 .
Reply | 4500

====

In this section, each of the compounds is paired with its reported EC50.
# TESTED TARGET: human P2Y2 receptor (Homo sapiens)
# PROCEDURE SUMMARY: Fluo-3 calcium mobilization, FLIPR, […]1 cells
Record the value in nM, omitting the unit from your answer.

[
  {
    "SMILES ENTRY": "O=c1ccn([C@@H]2O[C@H](COP(=O)(O)OP(=O)(O)OP(=O)(O)OP(=O)(O)OC[C@H]3O[C@@H](n4ccc(=S)[nH]c4=O)[C@H](O)[C@@H]3O)[C@@H](O)[C@H]2O)c(=O)[nH]1",
    "EC50 (nM)": 40
  }
]

Here is the next item to consider.
Ask | Give the measured EC50 of Nc1ncnc2c1ncn2[C@@H]1O[C@H](COP(=O)(O)OP(=O)(O)OP(=O)(O)OC[C@H]2O[C@@H](n3cnc4c(=O)[nH]cnc43)[C@H](O)[C@@H]2O)[C@@H](O)[C@H]1O .
Reply | 1200

====

# TESTED TARGET: UniProtKB P41231
# PROCEDURE SUMMARY: Fluo-3 calcium mobilization, FLIPR, […]1 cells
MEASUREMENT LABEL: pEC50
// pEC50 is dimensionless: -log10 of concentration (M)

Sample answers from the record:
[
  {
    "SMILES ENTRY": "Nc1ccn([C@@H]2O[C@H](COP(=O)(O)OP(=O)(O)OP(=O)(O)OC[C@H]3O[C@@H](n4cnc5c(N)ncnc54)[C@H](O)[C@@H]3O)[C@@H](O)[C@H]2O)c(=O)n1",
    "pEC50": 5.22
  },
  {
    "SMILES ENTRY": "Nc1ncnc2c1ncn2[C@@H]1O[C@H](COP(=O)(O)OP(=O)(O)OP(=O)(O)O)[C@@H](O)[C@H]1O",
    "pEC50": 7.82
  },
  {
    "SMILES ENTRY": "Nc1ccn([C@@H]2O[C@H](COP(=O)(O)OP(=O)(O)OP(=O)(O)OP(=O)(O)OC[C@H]3O[C@@H](n4ccc(=O)[nH]c4=O)[C@H](O)[C@@H]3O)[C@@H](O)[C@@H]2O)c(=O)n1",
    "pEC50": 6.23
  },
  {
    "SMILES ENTRY": "Nc1ccn([C@@H]2O[C@H](COP(=O)(O)OP(=O)(O)OP(=O)(O)OC[C@H]3O[C@@H](n4ccc(=O)[nH]c4=O)C[C@@H]3O)[C@@H](O)[C@H]2O)c(=O)n1",
    "pEC50": 5.51
  },
  {
    "SMILES ENTRY": "O=c1[nH]cnc2c1ncn2[C@@H]1O[C@H](COP(=O)(O)OP(=O)(O)OC[C@H]2O[C@@H](n3cnc4c(=O)[nH]cnc43)[C@H](O)[C@@H]2O)[C@@H](O)[C@H]1O",
    "pEC50": 5.32
  },
  {
    "SMILES ENTRY": "O=c1ccn([C@@H]2O[C@H](COP(=O)(O)OP(=O)(O)OP(=O)(O)O)[C@@H](O)[C@H]2O)c(=O)[nH]1",
    "pEC50": 7.82
  },
  {
    "SMILES ENTRY": "Nc1nc2c(ncn2[C@H]2C[C@H](O)[C@@H](COP(=O)(O)OP(=O)(O)OC[C@H]3O[C@@H](n4ccc(=O)[nH]c4=O)[C@H](O)[C@@H]3O)O2)c(=O)[nH]1",
    "pEC50": 4.54
  },
  {
    "SMILES ENTRY": "Nc1ncnc2c1ncn2[C@@H]1O[C@H](COP(=O)(O)OP(=O)(O)OP(=O)(O)OP(=O)(O)OC[C@H]2O[C@@H](n3cnc4c(N)ncnc43)[C@H](O)[C@@H]2O)[C@@H](O)[C@H]1O",
    "pEC50": 7.27
  },
  {
    "SMILES ENTRY": "Nc1nc2c(ncn2[C@H]2C[C@H](O)[C@@H](COP(=O)(O)OP(=O)(O)OP(=O)(O)OC[C@H]3O[C@@H](n4ccc(=O)[nH]c4=O)[C@H](O)[C@@H]3O)O2)c(=O)[nH]1",
    "pEC50": 6.33
  },
  {
    "SMILES ENTRY": "O=c1ccn([C@@H]2O[C@H](COP(=O)(O)OP(=O)(O)OP(=O)(O)OP(=O)(O)OC[C@H]3O[C@@H](n4cnc5c(=O)[nH]cnc54)[C@H](O)[C@@H]3O)[C@@H](O)[C@H]2O)c(=O)[nH]1",
    "pEC50": 6.28
  }
]

Ask | Give the measured pEC50 of Nc1ccn([C@@H]2O[C@H](COP(=O)(O)OP(=O)(O)OC[C@H]3O[C@@H](n4cnc5c(N)ncnc54)[C@H](O)[C@@H]3O)[C@@H](O)[C@H]2O)c(=O)n1 .
Reply | 5.16

Ask | Give the measured pEC50 of Nc1ncnc2c1ncn2[C@@H]1O[C@H](COP(=O)(O)OP(=O)(O)OC[C@H]2O[C@@H](n3ccc(=O)[nH]c3=O)[C@H](O)[C@@H]2O)[C@@H](O)[C@H]1O .
Reply | 4.63

Ask | Give the measured pEC50 of Nc1ccn([C@@H]2O[C@H](COP(=O)(O)OP(=O)(O)OP(=O)(O)OP(=O)(O)OC[C@H]3O[C@@H](n4ccc(=S)[nH]c4=O)[C@H](O)[C@@H]3O)[C@@H](O)[C@H]2O)c(=O)n1 .
Reply | 7.44

====

In this section, each of the compounds is paired with its reported pEC50.
# TESTED TARGET: human P2Y6 receptor (Homo sapiens, UniProt Q15077)
# Sequence (Q15077 whole entry): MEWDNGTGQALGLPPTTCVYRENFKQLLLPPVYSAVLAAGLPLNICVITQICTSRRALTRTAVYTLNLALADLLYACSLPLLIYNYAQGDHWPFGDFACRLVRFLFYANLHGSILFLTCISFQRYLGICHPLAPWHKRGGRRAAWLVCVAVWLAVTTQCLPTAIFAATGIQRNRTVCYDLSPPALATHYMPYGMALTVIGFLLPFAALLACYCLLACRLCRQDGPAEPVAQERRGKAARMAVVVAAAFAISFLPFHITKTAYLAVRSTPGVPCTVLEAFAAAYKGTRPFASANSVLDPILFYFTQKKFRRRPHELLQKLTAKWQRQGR
# PROCEDURE SUMMARY: Fluo-3 calcium mobilization, FLIPR, […]1 cells
pEC50: −log10 of the molar value.

Sample answers from the record:
[
  {
    "SMILES ENTRY": "O=c1[nH]cnc2c1ncn2[C@@H]1O[C@H](COP(=O)(O)OP(=O)(O)OC[C@H]2O[C@@H](n3cnc4c(=O)[nH]cnc43)[C@H](O)[C@@H]2O)[C@@H](O)[C@H]1O",
    "TESTED TARGET": "human P2Y6 receptor (Homo sapiens, UniProt Q15077)",
    "VALUE OBSERVED": "< 5.00"
  },
  {
    "SMILES ENTRY": "Nc1ccn([C@@H]2O[C@H](COP(=O)(O)OP(=O)(O)OP(=O)(O)OC[C@H]3O[C@@H](n4cnc5c(N)ncnc54)[C@H](O)[C@@H]3O)[C@@H](O)[C@H]2O)c(=O)n1",
    "TESTED TARGET": "human P2Y6 receptor (Homo sapiens, UniProt Q15077)",
    "VALUE OBSERVED": "< 5.00"
  }
]

Ask | Give the measured pEC50 of Nc1nc2c(ncn2[C@@H]2O[C@H](COP(=O)(O)OP(=O)(O)OP(=O)(O)OC[C@H]3O[C@@H](n4cnc5c(=O)[nH]cnc54)[C@H](O)[C@@H]3O)[C@@H](O)[C@H]2O)c(=O)[nH]1 .
Reply | < 5.00
